Where do these numbers come from? They come from patent EP2401611B1.

# MEASURED TARGET: sstr2 (Homo sapiens, UniProt P30874)
# Sequence (P30874 whole entry): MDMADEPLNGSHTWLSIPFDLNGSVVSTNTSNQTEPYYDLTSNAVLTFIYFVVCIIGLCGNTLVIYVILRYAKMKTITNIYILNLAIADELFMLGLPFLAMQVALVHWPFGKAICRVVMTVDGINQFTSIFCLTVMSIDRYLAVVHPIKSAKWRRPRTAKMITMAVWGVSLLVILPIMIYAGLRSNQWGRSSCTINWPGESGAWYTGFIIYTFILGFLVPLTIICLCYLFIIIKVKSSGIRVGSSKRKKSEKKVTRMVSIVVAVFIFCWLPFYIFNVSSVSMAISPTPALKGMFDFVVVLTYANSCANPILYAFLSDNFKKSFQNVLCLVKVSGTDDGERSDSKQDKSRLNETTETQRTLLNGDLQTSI
pKd: −log10 of the molar value.
ENDPOINT: pKd

**Query** I would be grateful if you could share the reported pKd for "CCCCCCCCCCC(C)(C)C(=O)N[C@H]1CCCCNC1=O" .
**Result** ~7.10

---

# MEASURED TARGET: sstr2 (Homo sapiens, UniProt P30874)
# METHOD: [3H]-BN83250 equilibrium binding to THP-1 cells
# CONDITION LABEL: read-out: ED50 for competition with [3H]-BN83250 binding at sstr2; 10nM [3H]-BN83250
pEC50: −log10 of the molar value.
ENDPOINT: pEC50

**Query** Can you share its pEC50? I mean this compound: "CC(C)(C)C(=O)N[C@H]1CCCNC1=O"
**Result** ~10.30

---

# System: THP-1 cells
# METHOD: MCP-1 induced THP-1 cell migration (Transwell) assay
# Assay type: cell-based, human
# CONDITION LABEL: Homo sapiens, THP-1; Table 5, library screening hits; read-out: Chemokine-induced THP-1 cell migration assay ("BSCI" target) ED50
ENDPOINT: pEC50
Scale for pEC50: -log10 of concentration given in mol/L; no unit attached.

**Query** // returns reported pEC50 for input CCCCCCCCCCC(C)(C)C(=O)N[C@H]1CCCCNC1=O [BN83250]
**Result** 10.05

---

# Test system: THP-1 cells
# METHOD: MCP-1 induced THP-1 cell migration (Transwell) assay
# Type: cell-based, human
# CONDITION LABEL: Table 3; read-out: Human chemokine-induced THP-1 migration assay ED50
ENDPOINT: pEC50
When answering, recall that pEC50 equals minus log10 of the concentration in mol/L, and write that number alone.

**Query** Reported pEC50 for C[C@@H](c1c[nH]c2ccccc12)[C@@H](NC(=O)N1CCC(n2c(=O)[nH]c3ccccc32)CC1)C(=O)NC[C@@H]1CCC[C@H](CN)C1 [L-779,976] : what is it?
**Result** 6.35
